Target: T1, UNK ZnF1-3 (human, UniProt Q9C0B0 31-174)
T1 sequence: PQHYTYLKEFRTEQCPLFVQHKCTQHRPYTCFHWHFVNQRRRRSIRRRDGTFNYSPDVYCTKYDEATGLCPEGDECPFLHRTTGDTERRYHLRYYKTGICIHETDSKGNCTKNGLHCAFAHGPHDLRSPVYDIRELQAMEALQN
Assay: nsRBNS (natural sequence RNA bind-n-seq); RBNS binding buffer (assumed for nsRBNS): 25 mM Tris pH 7.5, 150 mM KCl, 3 mM MgCl2, 0.01% Triton X-100, 500 ug/ml BSA, 20 U/ml SUPERase-In, 4 C; UNK is unkempt and MSI1 is Musashi-1; names of the RNAs are library labels; protein concentration not given here; high values mean tight binding
The full ranking holds about 24,000 sequences; the median of “enrichment r” is about 0.99, and the highest 2% start at about 3.7. Only a selection was taken, and the highest values are over-represented in it overall.
reported.endpoint: binding signal (enrichment R)
Write down the numeric answer in enrichment R and omit the unit.

Q. Any idea what its binding signal is? The binder is chr17:65740002:65740003:+_ENSG00000130935_ENST00000581375|hu_hu|hu_hu_hu_mus_False|98_108 (ssRNA) RNA: GGGAGUUCUACAGUCCGACGAUCAACCCGUUCUUGCCUGGAUGAAGAACAGGAAGAUUCAUAUUAAAAAAAAUAUAUAUCCAUCAAGUUAGGUGUGGUGGCCACACCUUUACUCCCAGCACUUUGGGAGGUGGAUCUCUGAGUCAACAGAGGAUUGAGCAUCA
A. 0.827

Q. Any idea what its binding signal is? The binder is chr11:48616917:48616918:+_ENSMUSG00000020372_ENSMUST00000020640|mus_mus|FALSE|FALSE (ssRNA) RNA: GGGAGUUCUACAGUCCGACGAUCGACGAUGAUAGGGUUGCUGCUGUUCGGGGAGAAGCGGACACAAGACACCCAUUCUGAAUGACUCUCAUCCUGGACCGUGUACUUGCAGACACCCAGAGUAUUCCAUAACUUUAUGGUCUUCAACAGAGGAUUGAGCAUCA
A. 0.907

Q. Any idea what its binding signal is? The binder is chr10:111893621:111893622:+_ENSG00000148700_ENST00000277900|hu_hu|FALSE|FALSE (ssRNA) RNA: GGGAGUUCUACAGUCCGACGAUCUAAUUCAGACAGAUAGCUGUUUAUGGUGAAUUAUAAUAAUACUUCAUGAGGGCAGAGCUAAUUAAAACUAGUAAUUGCUUAAAAUUCAAAGCCAUUUCUGGACAUAUAAAAUGAGAGAUGCAACAGAGGAUUGAGCAUCA
A. 5.27

Q. Any idea what its binding signal is? The binder is chr9:95013113:95013114:-_ENSG00000196305_ENST00000443024|hu_hu|hu_hu_hu_mus_False|68_88 (ssRNA) RNA: GGGAGUUCUACAGUCCGACGAUCCUCAGUCAGAAAGGGCGUGUAAGGAGCCAUAAGUCUGCACAGAGAAAGCAGAACACUGAACAGUGUCUCCAGAGCCAUGACACAGUCUUCCACCCCACUCUCACCCUUUAACCUCCUCCUCAACAGAGGAUUGAGCAUCA
A. 1.57

Q. Any idea what its binding signal is? The binder is chr17:56552419:56552420:-_ENSMUSG00000013236_ENSMUST00000086828|mus_mus|mus_mus_mus_hu_False|18_68 (ssRNA) RNA: GGGAGUUCUACAGUCCGACGAUCAAAAAAUACACUAUUUAAAAAAAAUGAAAUGUCACGGGAUACAAAAAAAUAUAGAGUUUUAAAAGAAAGCUGGAUUCUGGUCCCAGCCCAGUGGCAGGCAGGGGCAGAGCGGGGAGGAGCCAACAGAGGAUUGAGCAUCA
A. 7.03

Q. Any idea what its binding signal is? The binder is chr3:184044699:184044700:+_ENSG00000114867_ENST00000411531|hu_hu|motif|central (ssRNA) RNA: GGGAGUUCUACAGUCCGACGAUCAUUAUCUGUGCUUUCUGUGGGUACCGCUUGUUGAAGGGCUGAGAAGCGAUUCAAAGUACGGGUAGCUGGGCGAGCAGCUUCUGAUGCUGCGUCUGAGGGCUUGGCUCCUGAGCCUCCGCUCAACAGAGGAUUGAGCAUCA
A. 0.754

Q. Any idea what its binding signal is? The binder is chr7:65705844:65705845:+_ENSG00000169902_ENST00000304842|hu_mus|hu_hu_hu_mus_False|18_108 (ssRNA) RNA: GGGAGUUCUACAGUCCGACGAUCAAAAGGAUCUUUAUUACAUAAAUAAGGUGCCGGCUCCCCAUGUUUAACAAUGACCUCCAGAAGGAAGGCUUGCAUGGCAGAAUCUAGCACUUCAUCAGUAACACCCGCCUCAUCCAAGCGCAACAGAGGAUUGAGCAUCA
A. 0.624

Q. Any idea what its binding signal is? The binder is chr1:225611761:225611762:-_ENSG00000143815_ENST00000272163|hu_mus|hu_hu_hu_mus_True|1_18 (ssRNA) RNA: GGGAGUUCUACAGUCCGACGAUCCCAGGCCAUCGGCCUCUGACCACUUCACCCUCAACAAACUUCCUACUUGGCAUUUUCUAAAAUUAGUCUGGCCGCGCUCCGGCGGGAACUCCAGACGGCUCCCGACAGUCACCCGCACAGCAACAGAGGAUUGAGCAUCA
A. 1.37

Q. Any idea what its binding signal is? The binder is chr2:201681052:201681053:+_ENSG00000082153_ENST00000409600|hu_hu|FALSE|FALSE (ssRNA) RNA: GGGAGUUCUACAGUCCGACGAUCUUUUACUUCAUCUUCAAAACCUUUCUCCAGGUAUUUGUAGCGCCUGAUUAACUUGUUAAAAACCUGAGCAAAUGCUUGCAUGGUCUCUAGAUCUUCUUGGGCUGCAAACACGCAGACAUCCAACAGAGGAUUGAGCAUCA
A. 0.452

Q. Any idea what its binding signal is? The binder is chr15:76910149:76910150:-_ENSMUSG00000033565_ENSMUST00000166610|mus_mus|FALSE|FALSE (ssRNA) RNA: GGGAGUUCUACAGUCCGACGAUCAAUGCUGACGGAGGGAAGUCAUGUCUCUUAGGGGAAAGGAUCAGCUCAUCACUCGCUAUAUAACGCAGCCAAACGGGCUGCCCAACAAGCACGCACACAAGAAAUACUGUUAACAGAAAACAACAGAGGAUUGAGCAUCA
A. 1.79

Q. Any idea what its binding signal is? The binder is chr3:10015032:10015033:+_ENSMUSG00000027533_ENSMUST00000029046|mus_mus|mus_mus_mus_hu_True|1_38 (ssRNA) RNA: GGGAGUUCUACAGUCCGACGAUCGUUUUUACCAUCACAAGUGAUGAUACAAUCUGGCUUGGCCAUUGCGCCCAUUUUUCGCAAAGCUAUUCCCACUCCUAGCUCUUUCAUGUAUUCAUCAAAGCCUUUGCUGUCCAUCAGGCGCAACAGAGGAUUGAGCAUCA
A. 0.702

Q. Any idea what its binding signal is? The binder is chr1:109605286:109605287:-_ENSG00000197780_ENST00000461096|hu_mus|hu_hu_hu_mus_True|8_88 (ssRNA) RNA: GGGAGUUCUACAGUCCGACGAUCAAGUUUCAGAGUAACAUUCAGUAUACUUAAAUCAUGCAAUUAUCCUUAUUAUAAGCUAAGCAGAAUAAUAAUUUAAUACCGUAAGUGAACUACACACAAAGCCGUGUAUUCAGAAAUGGUCAACAGAGGAUUGAGCAUCA
A. 0.504

Q. Any idea what its binding signal is? The binder is 18916218_18916338_822_CDS_ENSMUSG00000020160_ENSMUST00000068264|mouse|control|control (ssRNA) RNA: GGGAGUUCUACAGUCCGACGAUCGUGCGGGUACUGAUGCGAGUGCAGAGGAGGCCCGUGGUUCAGGUGGUGGACCGGUUGCAUGGACCUGGCUGCAUGCGGGUCCCCAUACAUCGUGGAGGGGAUGCCUACUCCAUCCAUACCCAACAGAGGAUUGAGCAUCA
A. 0.98
